# Test system: CCRIS mutagenicity, Ames/micronucleus/aberration tests
# METHOD_DESCRIPTION: CCRIS mutagenicity studies
# TEST_PARAMETERS: Test System: AMES SALMONELLA TYPHIMURIUM; Strain/Indicator: TA100; Metabolic Activation: HAMSTER, LIVER, S-9, AROCLOR 1254; Method: STANDARD PLATE
# From the text: The CCRIS database contains chemical records with carcinogenicity, mutagenicity, tumor promotion, and tumor inhibition test results. It was developed by the National Cancer Institute (NCI). Data are derived from studies cited in primary journals, current awareness tools, NCI reports, and other sources. Test results have been reviewed by experts in carcinogenesis and mutagenesis. CCRIS provides historical information from the years 1985 - 2011. It is no longer updated. […]
Active and inactive are the calls of the source. How the calls were made is not given here.
Choose one outcome from this list and give only that: yes (1) = active, no (0) = inactive

record_smiles=C1O[C@@H]1[C@@H]1CO1 category="yes (1)"
record_smiles=Nc1nc2cc(Cl)c(Cl)cc2s1 category="no (0)"
record_smiles=Cc1ccc(N)c(S(=O)(=O)O)c1 category="no (0)"
record_smiles=Nc1c(Br)cc([N+](=O)[O-])cc1[N+](=O)[O-] category="yes (1)"
record_smiles=CCCCCCCCCCCC(=O)OCCS(=O)(=O)O category="no (0)"

Kindly consider the entry below.
Fill in: this test's call for O=[N+]([O-])/C(Br)=C\c1ccccc1 is ___
no (0)

Values from PubChem BioAssay AID1259407
